Target: T1, human G-CSF receptor (human, UniProt Q99062 25-836)
T1 sequence (looked up): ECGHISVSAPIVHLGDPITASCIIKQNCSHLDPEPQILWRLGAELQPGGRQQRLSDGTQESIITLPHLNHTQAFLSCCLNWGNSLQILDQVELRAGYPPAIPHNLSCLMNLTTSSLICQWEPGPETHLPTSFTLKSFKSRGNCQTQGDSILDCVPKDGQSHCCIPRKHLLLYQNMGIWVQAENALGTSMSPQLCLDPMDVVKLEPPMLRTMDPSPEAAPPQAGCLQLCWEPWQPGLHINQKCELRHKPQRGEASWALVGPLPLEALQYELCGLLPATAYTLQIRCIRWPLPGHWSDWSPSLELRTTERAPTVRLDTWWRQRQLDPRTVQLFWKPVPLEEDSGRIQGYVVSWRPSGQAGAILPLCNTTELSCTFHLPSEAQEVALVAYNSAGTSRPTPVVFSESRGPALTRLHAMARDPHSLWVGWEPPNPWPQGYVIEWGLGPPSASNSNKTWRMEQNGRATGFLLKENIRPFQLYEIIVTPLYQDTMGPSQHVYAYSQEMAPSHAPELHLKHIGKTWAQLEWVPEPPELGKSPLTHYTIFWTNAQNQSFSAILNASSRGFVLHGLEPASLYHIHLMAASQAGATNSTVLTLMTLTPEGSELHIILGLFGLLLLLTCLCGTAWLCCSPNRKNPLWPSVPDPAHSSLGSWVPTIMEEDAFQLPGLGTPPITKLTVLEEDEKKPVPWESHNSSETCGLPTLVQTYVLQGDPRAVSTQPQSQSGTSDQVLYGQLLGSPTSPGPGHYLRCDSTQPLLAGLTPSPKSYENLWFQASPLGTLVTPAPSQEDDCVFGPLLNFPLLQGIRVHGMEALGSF
Experiment: cell-based or functional assay
Parameter: Specific activity (% of Neupogen®), from EC50 in luciferase reporter assay

| Binder | Result |
| --- | --- |
| Single-chain G-CSF dimer (K16R K34R)copy 1,2 (ligand) TPLGPASSLPQSFLLRCLEQVRKIQGDGAALQERLCATYKLCHPEELVLLGHSLGIPWAPLSSCPSQALQLAGCLSQLHSGLFLYQGLLQALEGISPELGPTLDTLQLDVADFATTIWQQMEELGMAPALQPTQGAMPAFASAFQRRAGGVLVASHLQSFLEVSYRVLRHLAQPTPLGPASSLPQSFLLRCLEQVRKIQGDGAALQERLCATYKLCHPEELVLLGHSLGIPWAPLSSCPSQALQLAGCLSQLHSGLFLYQGLLQALEGISPELGPTLDTLQLDVADFATTIWQQMEELGMAPALQPTQGAMPAFASAFQRRAGGVLVASHLQSFLEVSYRVLRHLAQP | 329 % of Neupogen® |

Source: patent US20020142964A1
